- System: Escherichia coli
- assay.method.text: Antimicrobial activity against Escherichia coli HB101 expressing plasmid encoded TEM-149 T182M mutant by broth macrodilution method
- Type: functional
# Lookup of reported MIC keyed by entry
Write the number in µg/mL without appending the unit.

smiles.text: CC1(C)S[C@@H]2[C@H](NC(=O)[C@H](N)c3ccc(O)cc3)C(=O)N2[C@H]1C(=O)O
endpoint.result: 8
//
smiles.text: CCN1CCN(C(=O)N[C@@H](C(=O)N[C@@H]2C(=O)N3[C@@H]2SC(C)(C)[C@@H]3C(=O)O)c2ccccc2)C(=O)C1=O
endpoint.result: 1
//
smiles.text: CC(C)(O/N=C(\C(=O)N[C@@H]1C(=O)N2C(C(=O)[O-])=C(C[n+]3ccccc3)CS[C@H]12)c1csc(N)n1)C(=O)O
endpoint.result: 0.5

Continue with the next compound.
Record summary for `Cc1nnc(SCC2=C(C(=O)O)N3C(=O)[C@@H](NC(=O)Cn4cnnn4)[C@H]3SC2)s1` : reported MIC = 1
